- target or system: CDK2 (Homo sapiens)
- Construct: purchased BPS Bioscience 79599
- procedure text: CDK2 inhibition assay, colorimetric 96-well kit (BPS Bioscience)
- Type: biochemical
- experimental context: in vitro kinase inhibition; read-out: IC50 (µM) ± SD against CDK2

molecule	unit spec	IC50
O=c1c2ccccc2nc(COc2ccccc2)n1NS(=O)(=O)c1ccc(Cl)cc1 [Compound 5c]	µM	0.63
CN1CCN(CC(=O)Nn2c(COc3ccccc3)nc3ccccc3c2=O)CC1 [Compound 8a]	µM	1.74

---

- System: K-562
- procedure text: NCI-60 single dose screen, sulforhodamine B
- Assay type: cell-based, human
- experimental context: Leukaemia K-562; single dose 10^−5 M
measurement name: GI% at 10^−5 M

molecule	target or system	observed result
O=C(CNn1c(COc2ccccc2)nc2ccccc2c1=O)Nc1ccc(Cl)cc1 [Compound 4c]	K-562	10.43%
CN1CCN(CC(=O)Nn2c(COc3ccccc3)nc3ccccc3c2=O)CC1 [Compound 8a]	K-562	67.8%
COc1ccc(NC(=O)CNn2c(COc3ccccc3)nc3ccccc3c2=O)cc1 [Compound 4b]	K-562	– (– means GI < 10%)
O=c1c2ccccc2nc(COc2ccccc2)n1N=CC=Cc1ccccc1 [Compound 6b]	K-562	– (– means GI < 10%)
Cc1ccc(S(=O)(=O)Nn2c(COc3ccccc3)nc3ccccc3c2=O)cc1 [Compound 5b]	K-562	– (– means GI < 10%)

---

- Test system: RPMI-8226
- procedure text: NCI-60 single dose screen, sulforhodamine B
- Type: cell-based, human
- experimental context: Leukaemia RPMI-8226; single dose 10^−5 M
measurement name: GI% at 10^−5 M

smiles representation	observed result
CN1CCN(CC(=O)Nn2c(COc3ccccc3)nc3ccccc3c2=O)CC1	23.17%
O=C(CNn1c(COc2ccccc2)nc2ccccc2c1=O)Nc1ccc(Cl)cc1	– (– means GI < 10%)
Cc1ccc(S(=O)(=O)Nn2c(COc3ccccc3)nc3ccccc3c2=O)cc1	– (– means GI < 10%)
O=C(CN1CCN(c2ccccc2)CC1)Nn1c(COc2ccccc2)nc2ccccc2c1=O	– (– means GI < 10%)
COc1cc(C=Nn2c(COc3ccccc3)nc3ccccc3c2=O)ccc1O	– (– means GI < 10%)
O=c1c2ccccc2nc(COc2ccccc2)n1NS(=O)(=O)c1ccc(Cl)cc1	– (– means GI < 10%)

---

- Tested on: NCI-H23
- procedure text: NCI-60 single dose screen, sulforhodamine B
- Type: cell-based, human
- experimental context: Non-small cell lung cancer NCI-H23; single dose 10^−5 M

smiles representation	GI% at 10^−5 M
O=C(CNn1c(COc2ccccc2)nc2ccccc2c1=O)Nc1ccc(Cl)cc1	– (– means GI < 10%)
O=c1c2ccccc2nc(COc2ccccc2)n1NS(=O)(=O)c1ccc(Cl)cc1	17.19%
Cc1ccc(S(=O)(=O)Nn2c(COc3ccccc3)nc3ccccc3c2=O)cc1	11.47%
COc1ccc(N2CCN(CC(=O)Nn3c(COc4ccccc4)nc4ccccc4c3=O)CC2)cc1	– (– means GI < 10%)
COc1cc(C=Nn2c(COc3ccccc3)nc3ccccc3c2=O)ccc1O	– (– means GI < 10%)
O=C(CN1CCN(c2ccccc2)CC1)Nn1c(COc2ccccc2)nc2ccccc2c1=O	10.01%
COc1ccc(NC(=O)CNn2c(COc3ccccc3)nc3ccccc3c2=O)cc1	– (– means GI < 10%)
O=C(CNn1c(COc2ccccc2)nc2ccccc2c1=O)Nc1ccccc1	16.55%
CN1CCN(CC(=O)Nn2c(COc3ccccc3)nc3ccccc3c2=O)CC1	– (– means GI < 10%)
O=c1c2ccccc2nc(COc2ccccc2)n1NS(=O)(=O)c1ccccc1	11.73%
O=c1c2ccccc2nc(COc2ccccc2)n1N=CC=Cc1ccccc1	– (– means GI < 10%)
